Test system: UO-31 renal
Assay: NCI tumour cell line growth inhibition, 48 h
Measured quantity: TGI (µM)
Give bare numbers, in µM.

CC(C)CCCC(C)[C@H]1CC[C@H]2[C@@H]3CC[C@H]4C[C@@H](CCC=C(c5cc(Cl)c(O)c(C(=O)O)c5)c5cc(Cl)c(O)c(C(=O)O)c5)CC[C@]4(C)[C@H]3CC[C@]12C (stereo partly specified) (tested in a mixture with another compound): 27.2
COc1cc(-c2oc(C=Nc3ccccc3)c([N+](=O)[O-])c2-c2ccc(O)c(OC)c2)ccc1O: 29.6

Okay, now this compound:
Could you please provide reported TGI for FC(F)(F)C1(C(F)(F)F)O[SiH]2(OC(C(F)(F)F)(C(F)(F)F)c3ccccc32)c2ccccc21 ? Thanks!
30.7

###

Tested on: HL-60(TB) leukemia
Test: NCI tumour cell line growth inhibition, 48 h; in the data active = GI50 below about 0.43 µM; inactive = the rest
Result category, one only: active, inactive

Example entries begin here.
CCCN(CCC)C(=O)[C@H](CC)[C@@H]1CC[C@@H](C)[C@@H]([C@H](C)[C@@H](O)[C@@H](C)C(=O)[C@H](CC)C2O[C@]3(C=C[C@@H](O)[C@]4(CC[C@@](C)([C@H]5CC[C@](O)(CC)[C@H](C)O5)O4)O3)[C@H](C)C[C@@H]2C)O1 (some centres undefined): inactive
COC(=O)c1cc2oc(/C=C3\SC(=S)N(NC(C)=O)C3=O)cc2n1Cc1ccccc1: inactive
Oc1ccc(N=Nc2ccc(N=Nc3ccccc3)cc2)cc1: active

Hi, do you know how NCCCCN(Cc1nc2ccccc2[nH]1)[C@H]1CCCc2cccnc21 came out in this test?
inactive

Hi, do you know how OC(CNC1CCCC1)Cn1c2ccccc2c2ccccc21 (centres undefined) came out in this test?
inactive

Hi, do you know how O=C(CCCCCCC(=O)Nc1ccc2c(c1)/C(=C/c1ccc[nH]1)C(=O)N2)NO came out in this test?
inactive

Hi, do you know how N#Cc1nc2cc(F)c(F)cc2nc1-c1ccc(Cl)cc1 came out in this test?
inactive

Hi, do you know how COc1cccc2c(=O)c3c(sc12)c(NCCN(C)C)nc1ccccc13 came out in this test?
inactive

Hi, do you know how CS(=O)(=O)Nc1cc(-c2ccc3ncnc(Nc4ccc5c(cnn5Cc5ccccc5F)c4)c3c2)cnc1Cl came out in this test?
inactive

###

System: MALME-3M melanoma
Assay: NCI tumour cell line growth inhibition, 48 h
Consider the following molecules; for each one, report its TGI.

CN(C)c1ccc(N=Nc2cccc3ncccc23)cc1: > 100 µM
COc1ccc(/C=C/C(=O)c2cc3c(N)c(C(=O)Nc4ccccc4)sc3nc2C)cc1: > 50 µM
COc1ccc(CCc2ccccc2CC(=O)O)cc1: > 100 µM
CCCCCCCCCC1CC(=O)NCC(=O)NC(C(C)C)C(=O)NC(CC(C)C)C(=O)NC(C)C(=O)NC(C(C)C)C(=O)O1 (stereo not given): > 61.9 µM

Could you please provide reported TGI for CC(C)c1ccc2[nH]c(O)c(C3=Nc4ccccc4C3=O)c2c1 ? Thanks!
> 100 µM

###

Test system: KM12 colon
Assay: NCI tumour cell line growth inhibition, 48 h; in the data active means GI50 below about 0.43 µM; inactive means the rest
Result category, one only: active, inactive

Hi, do you know how C=CC(=O)Nc1cccc(C)c1Nc1ncc2cc(-c3c(Cl)c(OC)cc(OC)c3Cl)ccc2n1 came out in this test?
inactive

Hi, do you know how Oc1ccc(N=Nc2ccc(N=Nc3ccccc3)cc2)cc1 came out in this test?
inactive

Hi, do you know how OC(CNc1ccnc2cc(Cl)ccc12)CNC1CCCCC1 (stereo not given) came out in this test?
inactive

Hi, do you know how COc1ccc(/C=C/C(=O)c2cc3c(N)c(C(=O)Nc4ccccc4)sc3nc2C)cc1 came out in this test?
active

Hi, do you know how N=C(N)c1ccc(-c2ccc(-c3cccs3)s2)nc1 came out in this test?
inactive
